experiment: inhibition of 3D7 malaria parasite growth – strain 3D7 (AID 2306);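 also: 0% = DMSO wells and 100% = chloroquine plus artemisinin control wells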; conditions: P. falciparum 3D7 erythrocytic growth, LDH absorbance, 72 h; at 2 µM; hits give high values
recorded endpoint: growth inhibition (%)
Give bare numbers, in %.

# molecule, growth inhibition (%)
measured = [
    ("O=C(N[C@@H](Cc1ccccc1)[C@H](O)CNCCC(F)(F)F)c1cccc(OCC2CC2)c1", 98),
]

Please supply growth inhibition for each of the following items, keeping them in order.
1. Cc1cc(Br)c(OCCCON2C(N)=NC(N)=NC2(C)C)c(Br)c1
2. Cc1cc2nc(NC3=NC4(c5ccccn5)N=C(Nc5nc6cc(C)c(C)cc6[nH]5)NC4(c4ccccn4)N3)[nH]c2cc1C (centres undefined)
3. Nc1c(Cl)cc(C(O)CNCCCCCOCCCc2ccc3ncccc3c2)cc1Cl (centres undefined)

Result:
1. 95
2. 87
3. 96
